// provenance: ChEMBL document CHEMBL1158389

tested on: T47D; assay: Antiproliferative activity against human T47D cells at 4 uM after 48 hrs by MTT assay; assay type: functional
assay_endpoint: inhibition at 4 µM (%)
Supply the numeric figure in %, leaving out any unit text.

Cc1cc(O)c(C23CC4CC(CC(C4)C2)C3)cc1-c1ccc(CC(=O)O)cc1Cl :: 29.1
COCCOCOc1cc(C)c(-c2ccc3cc(C(=O)O)ccc3c2Cl)cc1C12CC3CC(CC(C3)C1)C2 :: 46.1
C/C(=C/c1ccc(C(=O)O)cc1)c1ccc(O)c(C23CC4CC(CC(C4)C2)C3)c1 :: 62.7
Cc1cc(O)c(C23CC4CC(CC(C4)C2)C3)cc1-c1ccc(/C=C/C(=O)O)cc1Cl :: 24.2

As a next step, examine the compound that follows.
In: Which value of inhibition at 4 µM has been reported for "Cc1cc(O)c(C23CC4CC(CC(C4)C2)C3)cc1-c1ccc2cc(C(=O)O)ccc2c1Cl" in the records?
Out: 55.8

###

system: BXPC-3; assay: Antiproliferative activity against human BxPC3 cells at 4 uM after 48 hrs by MTT assay; type: functional; settings: BXPC-3, 48 h
assay_endpoint: inhibition at 4 µM (%)
Supply the numeric figure in %, leaving out any unit text.

Example results:
COCCOCOc1cc(C)c(-c2ccc(CC(=O)O)cc2Cl)cc1C12CC3CC(CC(C3)C1)C2 :: 14
C/C(=C/c1ccc(C(=O)O)cc1)c1ccc(O)c(C23CC4CC(CC(C4)C2)C3)c1 :: 95.7
COCCOCOc1cc(C)c(-c2ccc3cc(C(=O)O)ccc3c2Cl)cc1C12CC3CC(CC(C3)C1)C2 :: 70.2
Cc1cc(O)c(C23CC4CC(CC(C4)C2)C3)cc1-c1ccc(/C=C/C(=O)O)cc1Cl :: 36
Cc1cc(O)c(C23CC4CC(CC(C4)C2)C3)cc1-c1ccc(CC(=O)O)cc1Cl :: 49.2
COCCOCOc1cc(C)c(-c2ccc(/C=C/C(=O)O)cc2Cl)cc1C12CC3CC(CC(C3)C1)C2 :: 45.8
COCCOCOc1ccc(C(=O)/C=C/c2ccc(C(=O)O)cc2)cc1C12CC3CC(CC(C3)C1)C2 :: 96.6

As a next step, examine the molecule that follows.
In: Given the entry "Cc1cc(O)c(C23CC4CC(CC(C4)C2)C3)cc1-c1ccc2cc(C(=O)O)ccc2c1Cl" , what inhibition at 4 µM was observed with BXPC-3?
Out: 94.7

###

molecular target: Retinoic acid receptor alpha (Homo sapiens) (UniProt P10276); assay: Inhibition of transactivation activity of Gal4-LBD fused human RARalpha (156 to 454) transfected in atRA-stimulated african green monkey CV1 cells at 4 uM after 6 hrs by Dual-light chemiluminescent assay; assay type: cell-based; conditions: CV-1
Sequence (P10276 whole entry, the tested form may be a part): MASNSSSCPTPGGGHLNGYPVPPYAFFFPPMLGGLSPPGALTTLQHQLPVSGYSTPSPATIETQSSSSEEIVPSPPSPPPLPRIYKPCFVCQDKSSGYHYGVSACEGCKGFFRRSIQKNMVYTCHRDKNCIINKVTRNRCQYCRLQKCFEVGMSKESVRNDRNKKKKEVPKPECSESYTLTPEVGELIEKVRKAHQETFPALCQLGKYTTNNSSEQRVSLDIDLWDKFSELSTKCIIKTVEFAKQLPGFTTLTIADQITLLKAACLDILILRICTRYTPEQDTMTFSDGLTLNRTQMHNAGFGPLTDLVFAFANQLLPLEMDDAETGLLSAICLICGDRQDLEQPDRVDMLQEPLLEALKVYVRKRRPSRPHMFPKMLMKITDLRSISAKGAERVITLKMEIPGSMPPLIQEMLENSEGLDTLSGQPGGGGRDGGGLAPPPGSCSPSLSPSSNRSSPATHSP
assay_endpoint: inhibition (%)

Example results:
COCCOCOc1cc(C)c(-c2ccc3cc(C(=O)O)ccc3c2Cl)cc1C12CC3CC(CC(C3)C1)C2 :: 27
Cc1cc(O)c(C23CC4CC(CC(C4)C2)C3)cc1-c1ccc2cc(C(=O)O)ccc2c1Cl :: 27

P: COCCOCOc1cc(C)c(-c2ccc(CC(=O)O)cc2Cl)cc1C12CC3CC(CC(C3)C1)C2
Q: COCCOCOc1cc(C)c(-c2ccc(/C=C/C(=O)O)cc2Cl)cc1C12CC3CC(CC(C3)C1)C2
In: Lab note: record which item had the higher inhibition, P or Q . Record your answer as the label of the chosen record.
Out: P
